These entries and their values trace back to patent US10940159B2.

# Assay details: Half-life, absorption window and permeability
# Type: in vivo
# Run conditions: human, in vivo; read-out: half-life

>  <Chemical string>
Cc1c(Cc2ccc(OC(C)C)cc2)c(O[C@@H]2O[C@H](CO)[C@@H](O)[C@H](O)[C@H]2O)nn1C(C)C

>  <half-life>
1.5 to 2 h

$$$$
